Each entry below carries its recorded Fold change vs. PBS Avg..
- experimental protocol: High throughput screening of water-soluble solid excipients for glucagon dissolution
- Format: physicochemical
- stated conditions: 30-minute incubation in pH 7.4 PBS containing 1 mg/mL excipient, 37° C.
State the answer as a number, implicitly in fold.

Look over these answered cases.
NC(=O)CC[C@H](N)C(=O)O = 3.87
O.O=C[C@H](O)[C@@H](O)[C@H](O)[C@H](O)CO [Dextrose Monohydrate] = 1.09

Let us examine a further case.
Lookup: Value lookup for Fold change vs. PBS Avg.; key = O=S([O-])S(=O)[O-].[Na+].[Na+] [Sodium Dithionite]
Found: 2.25

====

- experimental protocol: High throughput screening of water-soluble solid excipients for glucagon dissolution
- Assay type: physicochemical
- stated conditions: 30-minute incubation in pH 7.4 PBS containing 1 mg/mL excipient, 37° C.
Rule: Fold change vs. PBS Avg. under 2 fold gives Not satisfied, otherwise Satisfied.

NCCC(=O)O [Beta-Alanine] = Not satisfied

Lookup: Textbook exercise: given the entry O=S([O-])S(=O)(=O)[O-].[K+].[K+] [Potassium Metabisulfite] , state whether its Fold change vs. PBS Avg. is greater than or equal to 2 fold.
Found: Satisfied

Lookup: Moving on to O=C([O-])[C@H](O)[C@@H](O)[C@H](O)[C@H](O)CO.[Na+] [Sodium Gluconate]
Found: Not satisfied

Lookup: Same question for O=C(O)c1ccccc1 [Benzoic acid] please.
Found: Satisfied

Lookup: What about CC(C)[C@H](N)C(=O)O [Valine] ?
Found: Not satisfied

Lookup: Next up: CCCCCCCCCCCCOP(=O)([O-])OCC[N+](C)(C)C [Dodecylphosphocholine]
Found: Satisfied

Lookup: Entry OC[C@H]1O[C@H](O[C@H]2O[C@H](CO)[C@@H](O)[C@H](O)[C@H]2O)[C@H](O)[C@@H](O)[C@@H]1O [D-(+)-Trehalose] please
Found: Not satisfied

Lookup: Subsequent entry: NC(=O)c1cccnc1 [Niacinamide]
Found: Not satisfied

====

- experimental protocol: High throughput screening of water-soluble solid excipients for glucagon dissolution
- Format: physicochemical
- stated conditions: solubilized glucagon after 30-minute incubation of lyophilized glucagon in pH 7.4 PBS containing 1 mg/mL excipient, 37° C.
Please use Yes whenever Glucagon concentration Avg. is not below 0.2 mg/mL, and No whenever it is.

Look over these answered cases.
O=C(O)CC(O)C(=O)O (stereo not shown) [Malic Acid] = No
NC(=O)CNCCS(=O)(=O)O [ACES] = Yes
O=S(=O)(O)CCN1CCN(CCO)CC1 [HEPES] = Yes
CC[C@H](C)[C@H](N)C(=O)O [Isoleucine] = Yes
NCCS(=O)(=O)O [Taurine] = Yes

Lookup: Given O=C(OC[C@H]1O[C@@H](OC(=O)c2cc(O)c(O)c(OC(=O)c3cc(O)c(O)c(O)c3)c2)[C@H](OC(=O)c2cc(O)c(O)c(OC(=O)c3cc(O)c(O)c(O)c3)c2)[C@@H](OC(=O)c2cc(O)c(O)c(OC(=O)c3cc(O)c(O)c(O)c3)c2)[C@@H]1OC(=O)c1cc(O)c(O)c(OC(=O)c2cc(O)c(O)c(O)c2)c1)c1cc(O)c(O)c(OC(=O)c2cc(O)c(O)c(O)c2)c1 [Tannic Acid] , state whether its Glucagon concentration Avg. is at least 0.2 mg/mL.
Found: No

Lookup: Okay, and O=S(=O)(O)CCNC(CO)(CO)CO [TES] ?
Found: Yes

Lookup: Would you mind doing CC(C)[C@H](N)C(=O)O [Valine] as well?
Found: Yes

Lookup: Further, for C[N+](C)(C)CC(=O)O [Betaine] ?
Found: Yes
